biological target: feline calcium-sensing receptor (fCaSR) (Felis catus, UniProt C7FF08, X1044R); assay: In vitro cellular luminescence assay for activation of fCaSR (HEK T-Rex/natClytin clone K 5.1, FLIPR Tetra), agonist mode and PAM mode; type: cell-based
Sequence (C7FF08 1-1081 X1044R): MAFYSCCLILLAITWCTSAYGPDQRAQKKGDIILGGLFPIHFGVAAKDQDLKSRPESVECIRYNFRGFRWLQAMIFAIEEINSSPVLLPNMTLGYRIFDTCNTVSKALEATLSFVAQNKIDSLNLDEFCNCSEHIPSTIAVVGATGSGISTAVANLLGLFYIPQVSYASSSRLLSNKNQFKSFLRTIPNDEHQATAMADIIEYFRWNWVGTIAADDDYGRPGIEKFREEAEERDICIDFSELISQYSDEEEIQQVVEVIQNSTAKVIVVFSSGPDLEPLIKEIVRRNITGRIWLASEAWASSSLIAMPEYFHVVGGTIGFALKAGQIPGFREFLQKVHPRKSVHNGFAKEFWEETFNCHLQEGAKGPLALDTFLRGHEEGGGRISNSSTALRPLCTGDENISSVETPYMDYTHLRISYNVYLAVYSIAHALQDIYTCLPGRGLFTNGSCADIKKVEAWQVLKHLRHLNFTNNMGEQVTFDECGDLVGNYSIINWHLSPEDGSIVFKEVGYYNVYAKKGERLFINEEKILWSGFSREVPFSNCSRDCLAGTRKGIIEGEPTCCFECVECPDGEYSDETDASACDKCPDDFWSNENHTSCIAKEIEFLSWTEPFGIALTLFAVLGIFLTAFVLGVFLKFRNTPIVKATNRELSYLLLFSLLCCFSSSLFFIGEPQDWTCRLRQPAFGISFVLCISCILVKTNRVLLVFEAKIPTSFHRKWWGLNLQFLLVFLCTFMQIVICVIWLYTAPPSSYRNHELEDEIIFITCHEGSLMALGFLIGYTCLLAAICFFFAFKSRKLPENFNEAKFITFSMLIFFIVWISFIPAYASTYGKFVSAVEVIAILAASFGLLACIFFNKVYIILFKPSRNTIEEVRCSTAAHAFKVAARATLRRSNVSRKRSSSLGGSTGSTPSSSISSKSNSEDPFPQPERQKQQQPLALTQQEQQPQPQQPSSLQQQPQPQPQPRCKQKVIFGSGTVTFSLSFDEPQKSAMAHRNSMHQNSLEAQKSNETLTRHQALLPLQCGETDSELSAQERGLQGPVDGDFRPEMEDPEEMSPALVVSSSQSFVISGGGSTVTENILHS
Measured attribute: EC50 (mM)
Form entry: value (mM) — number only.

Prompt: Value wanted: EC50 (feline calcium-sensing receptor (fCaSR) (Felis catus, UniProt C7FF08, X1044R)) of entry "C[C@@H](NCCCc1cccc(C(F)(F)F)c1)c1cccc2ccccc12"
Completion: 0.001

Prompt: Value wanted: EC50 (feline calcium-sensing receptor (fCaSR) (Felis catus, UniProt C7FF08, X1044R)) of entry NCC1O[C@H](O[C@@H]2C(N)C[C@@H](N)C(O)C2O[C@@H]2O[C@H](CO)C(OC3O[C@@H](CN)C(O)C(O)[C@H]3N)C2O)C(N)C(O)[C@@H]1O (stereo partly drawn)
Completion: 10

Prompt: Value wanted: EC50 (feline calcium-sensing receptor (fCaSR) (Felis catus, UniProt C7FF08, X1044R)) of entry "NCCCCNCCCN"
Completion: 1.3
